# target_system: T1, B. subtilis DnaG primase (Bacillus subtilis, UniProt P05096 1-603, limits assumed)
# T1 construct: Recombinant
# T1 sequence (looked up): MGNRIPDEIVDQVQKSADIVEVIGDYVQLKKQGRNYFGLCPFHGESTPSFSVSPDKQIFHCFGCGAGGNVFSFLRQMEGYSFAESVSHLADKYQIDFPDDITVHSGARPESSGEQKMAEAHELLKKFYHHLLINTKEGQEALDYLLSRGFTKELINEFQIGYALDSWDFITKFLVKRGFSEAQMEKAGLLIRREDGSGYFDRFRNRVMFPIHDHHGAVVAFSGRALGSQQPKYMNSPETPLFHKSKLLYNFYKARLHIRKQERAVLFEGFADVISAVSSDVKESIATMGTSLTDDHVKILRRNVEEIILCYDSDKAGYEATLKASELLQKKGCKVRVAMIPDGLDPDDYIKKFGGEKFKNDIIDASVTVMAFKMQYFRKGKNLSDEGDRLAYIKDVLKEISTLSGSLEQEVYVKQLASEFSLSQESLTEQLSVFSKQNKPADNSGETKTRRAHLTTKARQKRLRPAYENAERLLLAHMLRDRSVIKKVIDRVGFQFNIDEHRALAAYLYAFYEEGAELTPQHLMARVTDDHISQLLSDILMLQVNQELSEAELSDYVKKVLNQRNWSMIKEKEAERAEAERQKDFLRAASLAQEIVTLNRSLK
# protocol_summary: native gel shift assay, 10 ug G40P construct with 10 ug primase
endpoint_label: binding result

Q: Which binding result value belongs to G40P N-terminal deletion mutant ΔN129 (enzyme, Forms hexamers in gel filtration; also called G40P-Δ129; G40P truncated monomer) GPVKPIQEAVSELMEIEASGTDDDDGSIDEALVTVYEEIESADGNITGVPSGFTELDRMTYGYKRRNFVLIAARPSMGKTAFALKQAKNMSDNDDVVNLHSLEMGKKENIKRLIVTAGSINAQKIKAARRDFASEDWGKLSMAIGEISNSNINIFDKAGQSVNYIWSKTRQTKRKNPGKRVIVMIDYLQLLEPAKANDSRTNQISQISRDLKKMARELDVVVIALSQLSRQVEQRQDKRPMLSDLRESGQLEQDADIIEFLYRDDYYDKESESKNIVEVIIAKHRDGPVGTVSLAFIKEYGNFVNLERRFDDR ?
A: no binding

Q: Which binding result value belongs to G40P N-terminal deletion mutant ΔN92 (enzyme, Lacks the N-globe and keeps an intact α-hairpin; Forms hexamers in gel filtration) STTTFKQHCQTVSEYFQKRKAISIAQQIIENVNESDDGPVKPIQEAVSELMEIEASGTDDDDGSIDEALVTVYEEIESADGNITGVPSGFTELDRMTYGYKRRNFVLIAARPSMGKTAFALKQAKNMSDNDDVVNLHSLEMGKKENIKRLIVTAGSINAQKIKAARRDFASEDWGKLSMAIGEISNSNINIFDKAGQSVNYIWSKTRQTKRKNPGKRVIVMIDYLQLLEPAKANDSRTNQISQISRDLKKMARELDVVVIALSQLSRQVEQRQDKRPMLSDLRESGQLEQDADIIEFLYRDDYYDKESESKNIVEVIIAKHRDGPVGTVSLAFIKEYGNFVNLERRFDDR ?
A: no binding

Q: Which binding result value belongs to G40P N-terminal deletion mutant ΔN112 (enzyme, Limits inferred from the name, by analogy with ΔN129 = residues 130-442; Forms hexamers in gel filtration) AISIAQQIIENVNESDDGPVKPIQEAVSELMEIEASGTDDDDGSIDEALVTVYEEIESADGNITGVPSGFTELDRMTYGYKRRNFVLIAARPSMGKTAFALKQAKNMSDNDDVVNLHSLEMGKKENIKRLIVTAGSINAQKIKAARRDFASEDWGKLSMAIGEISNSNINIFDKAGQSVNYIWSKTRQTKRKNPGKRVIVMIDYLQLLEPAKANDSRTNQISQISRDLKKMARELDVVVIALSQLSRQVEQRQDKRPMLSDLRESGQLEQDADIIEFLYRDDYYDKESESKNIVEVIIAKHRDGPVGTVSLAFIKEYGNFVNLERRFDDR ?
A: no binding

Origin of the recorded values: patent US20090215075A1
